- STUDY_TARGET: MCR4 (human, UniProt P32245 1-332)
- Sequence (P32245 whole entry): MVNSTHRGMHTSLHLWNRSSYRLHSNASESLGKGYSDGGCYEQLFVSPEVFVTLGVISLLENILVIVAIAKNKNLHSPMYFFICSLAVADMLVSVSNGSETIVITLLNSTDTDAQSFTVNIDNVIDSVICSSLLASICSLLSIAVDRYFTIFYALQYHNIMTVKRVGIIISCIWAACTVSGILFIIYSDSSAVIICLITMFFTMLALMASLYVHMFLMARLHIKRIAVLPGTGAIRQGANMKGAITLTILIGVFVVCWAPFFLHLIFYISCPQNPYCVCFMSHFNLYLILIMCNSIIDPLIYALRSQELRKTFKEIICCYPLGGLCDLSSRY
- METHOD_DESCRIPTION: cell-based or functional assay
Square brackets hold non-standard residues; d marks the D form. Ends that are not written are not given here. Nle = CCCC[C@H](N)C(=O)O
PARAMETER: MCR4 EC50 (nM); cAMP production, LANCE cAMP assay, CHO-MCR4 cells, cell pool C
Use nM as the unit, but write only the number.

Sample records with MCR4 EC50 (nM); cAMP production, LANCE cAMP assay, CHO-MCR4 cells, cell pool C:
SYSMEHFRWGKPVGKKRRPVKVYPGGGGSGGSYS[Nle]EH[dF]RWGKPV (ends and bridges not checked) [ACTH1-24-7aa-NDP-α-MSH]; 1.5
SYSMEHFRWGKPVGKKRRAVKVYPGGGGSGGGGSSYS[Nle]EH[dF]RWGKPV [ACTH1-24-point-5-10aa-NDP-α-MSH]; 2.8
Ac-SYS[Nle]EH[dF]RWGKPVGGGGSGGGGSSYSMEHFRWGKPVGKKRRPVKVYP [NDP-α-MSH-linker-linker-ACTH1-24]; 2.2

Next, consider the following binder.
Reported MCR4 EC50 (nM); cAMP production, LANCE cAMP assay, CHO-MCR4 cells, cell pool C, binder SYSMEHFRWGKPVGAARRPVKVYPGGGGSGGGGSSYS[Nle]EH[dF]RWGKPV (ends and bridges not checked) [ACTH1-24-point-1-2-10aa-NDP-α-MSH] : ____ 2.3

The reported numbers originate from patent US20190054150A1.
